assay: polyglutamine-triggered caspase-3 activation inhibitors, cell-based (AID 1583); conditions: polyglutamine-induced caspase-3 activation, cell assay; stronger effect = higher value;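 tested at 10 µM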
Reported inhibition by item:

molecule	inhibition, %
Cc1noc(NS(=O)(=O)c2ccc(N)cc2)c1C	16.5
Cc1ccc(C)c(OCCCC(C)(C)C(=O)O)c1	5.02
Cn1c(=O)c2[nH]cnc2n(C)c1=O	9.69
OC(CCN1CCCC1)(c1ccccc1)C1CCCCC1 (configuration not stated)	2.81
NC(N)=NC(=O)c1nc(Cl)c(N)nc1N	17.4
CC(C[N+](C)(C)C)OC(N)=O (configuration not stated)	18.5
CC(C)[N+](C)(CCOC(=O)C1c2ccccc2Oc2ccccc21)C(C)C	8.5
O=C1c2c(O)ccc(O)c2C(=O)c2c(NCCNCCO)ccc(NCCNCCO)c21	63.3
CN(C)CCCN1c2ccccc2CCc2ccc(Cl)cc21	-18.9
O=C(O)c1cc(=O)c2c(OCC(O)COc3cccc4oc(C(=O)O)cc(=O)c34)cccc2o1	-4.9
CCN(CC)CCCC(C)Nc1ccnc2cc(Cl)ccc12 (configuration not stated)	9.86
COc1cc2nc(N3CCN(C(=O)c4ccco4)CC3)nc(N)c2cc1OC	16.5
